Target: T1, TAF3 PHD reader domain (human, UniProt Q5VWG9 855-915)
T1 sequence: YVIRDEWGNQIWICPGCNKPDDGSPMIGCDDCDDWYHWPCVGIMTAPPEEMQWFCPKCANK
Test: ITC; 19 injections of histone peptide (0.3–1.2 mM) into reader protein (22–100 µM), 298.15 K, same buffer as used in size exclusion chromatography, one-site fit, 3–5 repeats
Settings: both partners purified
Ends that are not written are not given here.
What pKd was measured for each of the following?
One number for each entry, as −log10 of the molar value.

binder	quantity	experimentalValue
ARTCQTARKS (not fully specified (residue 4), histone H3, residues 1-10, printed as ART(Kme3/KCme3)QTARKS; position 4 is a cysteine alkylated to trimethylthialysine; The letter C at position 4 stands for the alkylated cysteine (trimethylthialysine), not a free cysteine; also called 1–10 H3KC4me3) [10-mer histone H3 peptide bearing trimethylthialysine at position 4 (H3KC4me3)]	pKd	7.38

Consider the additional binder presented here.
Consider the binder ARTKQTARKS (trimethyllysine (Kme3) at position 4, histone H3, residues 1-10, printed as ART(Kme3/KCme3)QTARKS; also called 1–10 H3K4me3; source: synthetic peptide (solid-phase peptide synthesis, preparative HPLC)) [10-mer histone H3 peptide bearing trimethyllysine at position 4 (H3K4me3)] . State its measured pKd.
7.08
